- PROCEDURE TEXT: NCI Yeast Anticancer Drug Screen. Data for the mec2-1 strain (AID 157)
- ASSAY CONTEXT: S. cerevisiae mec2-1 strain, at 50.0 µM (retest, dose inferred, filed as 5.0), hits give high values
The panel holds about 79,000 compounds, 15% with a hit somewhere; the sample as a whole holds those more often.
Recorded measurements of growth inhibition, one per entry
OBSERVABLE: growth inhibition (%)

# COMPOUND, VALUE REPORTED
data = [
    ("CC1=CC(=O)C=C(Br)C1=O", 99),
    ("COc1cc(C)cc(C(=O)OCc2ccccc2)c1C1=C(Cl)C(=O)C(Cl)=CC1=O", 12),
    ("CCc1c(C(=O)OC)c(C(=O)OC)c(-c2ccccc2)n1CCn1c(CC)c(C(=O)OC)c(C(=O)OC)c1-c1ccccc1", 64),
    ("CCC1CCCN1CCOC(=O)C(c1ccccc1)C1C=CCC1 (centres undefined)", 58),
    ("COc1ccccc1NC(=O)C1=C(C)NC(C)=C(C(=O)Nc2ccccc2OC)C1c1ccccc1[N+](=O)[O-]", 4),
    ("CC(CC(=O)c1ccc2sc3ccccc3c2c1)C(=O)O (centres undefined)", 47),
    ("Cc1ccccc1C[n+]1ccccc1Br", 79),
    ("CCO/C=C1\\N=C(C(O)(c2ccc(Cl)cc2)c2ccc(Cl)cc2)OC1=O", 16),
    ("CN(C)CCCC(=O)OCC[N+](C)(C)C", 6),
    ("CCC(C)COC(=O)c1ccc([N+](=O)[O-])cc1 (centres undefined)", 2),
    ("CC(C)CCN(CCC(C)C)C(=S)Nc1ccccc1", 93),
    ("CC1CCCC(C)C1=O (centres undefined)", 0),
    ("O=C1CSC(=S)N1c1ccc(F)cc1F", 82),
    ("O=C(O)C1C(C(=O)O)C2C(=O)C=CC1N2Cc1ccccc1 (centres undefined)", 61),
    ("Cc1cccc(Cl)c1NC(=O)/C=C/c1ccccc1", 44),
    ("CCCCCCCC(CC(=O)O)OC(=O)CC(CCCCCCC)OC1OC(C)C(O)C(O)C1OC1OC(C)C(O)C(O)C1O (centres undefined)", -5),
    ("FC(F)(F)c1nc2cc(SSc3cc4nc(C(F)(F)F)[nH]c4cc3Cl)c(Cl)cc2[nH]1", 85),
    ("CCCCc1c2c(nc3c1CCC/C3=C\\c1ccccc1)C(=O)C(CN(C)C)CC2 (centres undefined)", 97),
    ("O=C1C=C(Br)C(=O)C12CCc1ccccc12 (centres undefined)", 99),
    ("CCOc1ccccc1NC1=C(Cl)C(=O)c2ccccc2C1=O", 98),
    ("c1ccc(N=Nc2n[nH]c3ccccc23)cc1", 74),
    ("O=C(Nc1cccc2ccccc12)OCC1CCc2ccccc2C1 (centres undefined)", 2),
    ("CCC(Cl)COP(=O)(OCC(Cl)CC)OC(c1ccc(Cl)c(Cl)c1)P(=O)(OCC(Cl)CC)OCC(Cl)CC (centres undefined)", 11),
    ("CCOc1ccccc1C(=O)Nc1cc(C)nn1-c1ccccc1", 4),
    ("C1=C(c2c(-c3ccccc3)[nH]c3ccccc23)Cc2ccccc21", 95),
    ("CCCSc1ncnc2nc(C)[nH]c12", -7),
    ("O=C1OC2(c3ccccc31)c1cc(I)c(O)c(I)c1Oc1c2cc(I)c(O)c1I", 99),
    ("CC(=O)OCc1cc2c(s1)C(=O)c1sccc1C2=O", 67),
    ("COC(=O)CCC(=O)NCCc1ccc2c([nH]c3ccccc32)c1C", -1),
    ("C=CCOc1ccccc1C(OCC)OCC", 35),
    ("COC(=O)Oc1nn(C(=O)OC)c(=O)c2ccccc12", 45),
    ("CCC(=O)C(CC)(c1ccc(OC(C)=O)cc1)c1ccc(OC(C)=O)cc1", 73),
    ("O=c1c2ccccc2sc2c1c(N(CCO)CCO)cc1ccccc12", 94),
    ("COC(=O)c1ccccc1NC(=O)C(=O)Cc1nc2c3c(ccc2[nH]c1=O)C(=O)c1ccccc1C3=O", 99),
    ("Cc1cc(NCCCCCCNc2cc(C)nc3cc(N(C)C)ccc23)c2ccc(N(C)C)cc2n1", 96),
    ("CCCCCCCCCCCCCCCCN[Si](NCCCCCCCCCCCCCCCC)(NCCCCCCCCCCCCCCCC)NCCCCCCCCCCCCCCCC", 96),
    ("CC(c1ccc2cccc(F)c2c1)c1ccccc1C(=O)O (centres undefined)", 98),
    ("CC1CC(C)CC(C(O)(C(=O)O)C2CC(C)CC(C)C2)C1 (centres undefined)", 99),
    ("CC(C)(C)C1=NN=C2c3ccccc3C(=O)C21 (centres undefined)", 44),
]

The values you see were collected from PubChem BioAssay (NCI).
